Assay: Intrinsic clearance in human liver microsomes
Assay type: ADME, Microsome
Settings: read-out: CLH
Response field label takes y when microsomal CLint is strictly below 20 µL/min/mg and n in all other cases.

[
  {
    "compound.smiles": "CN(CC(N)=O)Cc1nc(-c2cn(CC3CCOCC3)c3c(Cl)cccc23)no1.Cl",
    "class.label": "n"
  },
  {
    "compound.smiles": "CN(CC(N)=O)Cc1nc(-c2cn(CC3CCS(=O)(=O)CC3)c3c(Cl)cccc23)no1",
    "class.label": "n"
  },
  {
    "compound.smiles": "O=C(NCCO)C1CCN(Cc2nc(-c3cn(CC4CCOCC4)c4c(Cl)cccc34)ns2)CC1",
    "class.label": "y"
  },
  {
    "compound.smiles": "CN(CC(=O)NCCO)Cc1nc(-c2cn(CC3CCOCC3)c3c(Cl)cccc23)no1",
    "class.label": "n"
  },
  {
    "compound.smiles": "CN(CC(N)=O)Cc1nc(-c2cn(CC3CCS(=O)(=O)CC3)c3c(Cl)cccc23)ns1",
    "class.label": "n"
  }
]
